Source: the Human Domainome abundance scans (Beltran et al. 2025)

B1: Steroid hormone receptor ERR2, residues 100 to 176; numbered along this chain, O95718 (parent)
chain: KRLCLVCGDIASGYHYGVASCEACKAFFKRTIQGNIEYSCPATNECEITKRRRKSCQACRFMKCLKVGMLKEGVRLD

# Variants of: B1
# assayProcedure: abundance fitness (aPCA) (normalised: wild type 0, dead -1); higher = more abundant; growth selection in yeast, the domain comes from the species named
# testConditions: Homo sapiens
Please mark MET if the recorded abundance fitness is equal to or greater than -0.2, and NOT MET if it falls below.

Reported abundance fitness at or above -0.2? C40Q NOT MET

Continue with L5Y MET

Similarly, E47D ? MET

Subsequent entry: C46K NOT MET

Continue with I32T NOT MET

Please answer likewise for Y16M NOT MET

Param item: A23E MET

Same thing, different variant: C40E NOT MET

Follow-up item: N44T NOT MET

Would you kindly repeat that for K63T ? NOT MET

Then what about the variant C21S ? NOT MET

Also I32N , if possible. NOT MET

Further, for K1C ? NOT MET

What about S39E ? MET

E47Q ? MET

Also N35L , if possible. NOT MET

Same question for K63V please. NOT MET

Okay, and F61E ? NOT MET

Record: G13H NOT MET

What do you have for R60Y ? MET

Then what about the variant G13Y ? NOT MET

Also check F61V NOT MET
